- experiment_summary: Interpatient oral bioavailability in patients (oral vs intravenous AUC, matched)
- Type: in vivo
- condition_parameters: human, plasma, 2 mg/m2, AMT 2 mg/m^2, pediatric patients, n=15, read-out: Minimum (%) oral bioavailability
metric_name: bioavailability (%)
One number for each entry, in %.

Exercise: If you can, please state the reported bioavailability value of Nc1nc(N)c2nc(CNc3ccc(C(=O)N[C@@H](CCC(=O)O)C(=O)O)cc3)cnc2n1 [AMT] .
Solution: 45
